System: LNCaP
test_details: Antiproliferative activity against human LNCaP cells assessed as cell growth inhibition by MTT assay
Type: functional, cell-based
pIC50: −log10 of the molar value.

smi	target_desc	pIC50
COc1cc(N(Cc2c(C)noc2C)C(=O)CSc2nc3ccccc3s2)cc(OC)c1OC	LNCaP	5.37

----------
target_desc: Tubulin
test_details: Inhibition of tubulin polymerization (unknown origin) by spectrophotometer based analysis

smi	target_desc	IC50, nM
COc1cc(N(Cc2c(C)noc2C)C(=O)CSc2nc3ccccc3s2)cc(OC)c1OC	Tubulin	2870

----------
Tested on: CWR22R
test_details: Antiproliferative activity against human 22Rv1 cells assessed as cell growth inhibition by MTT assay
Type: functional, cell-based
The compounds listed here are annotated with their IC50.
measured_parameter: IC50

smi	measured_parameter	assay_result
COc1cc(N(Cc2c(C)noc2C)C(=O)CSc2nc3ccccc3s2)cc(OC)c1OC	IC50	2.13 µM
O=c1[nH]cc(F)c(=O)[nH]1	IC50	18.3 µM
COc1cc(N(C(=O)CSc2nc3ccccc3s2)c2ccncc2)cc(OC)c1OC	IC50	5.09 µM

----------
System: MCF7
test_details: Cytotoxicity against human MCF7 cells assessed as cell growth inhibition and measured after 72 hrs by SRB assay
Assay type: functional, cell-based
measurement_parameters: MCF7, 72 h
measured_parameter: IC50

smi	measured_parameter	assay_result
Oc1ccc(-c2cc(N3CCN(Cc4ccc(C(F)(F)F)cc4)CC3)no2)cc1	IC50	8.3 µM
C#Cc1cccc(Nc2ncnc3cc(OCCOC)c(OCCOC)cc23)c1	IC50	4.1 µM
FC(F)(F)c1ccc(CN2CCN(c3cc(-c4ccccc4)on3)CC2)cc1	IC50	19.1 µM
FC(F)(F)c1ccc(CN2CCN(c3cc(-c4ccc(Cl)cc4)on3)CC2)cc1	IC50	14 µM

----------
Please consider the recorded pIC50 for Tyrosine-protein phosphatase non-receptor type 2 (Homo sapiens) in what follows.
pIC50: −log10 of the molar value.

molecule	pIC50
O=C(O)c1cccc(/C=C/c2ccc(Oc3cnoc3-c3cccc([N+](=O)[O-])c3)cc2)c1	4.88
C[C@H](CCC(=O)O)[C@H]1CC[C@H]2[C@@H]3CC[C@@H]4C[C@H](O)CC[C@]4(C)[C@H]3CC[C@]12C [LITHOCHOLIC ACID]	5.21

----------
Tested on: MCF7
test_details: Cytotoxicity against human MCF7 cells assessed as cell growth inhibition and measured after 72 hrs by SRB assay
Type: functional, cell-based
measurement_parameters: MCF7, 72 h
Listed molecules paired with reported IC50

smi	IC50, µM
Fc1ccc(-c2cc(N3CCN(Cc4ccc(C(F)(F)F)cc4)CC3)no2)cc1	11.9
Cc1ccc(-c2cc(N3CCN(Cc4ccc(C(F)(F)F)cc4)CC3)no2)cc1	9.4
FC(F)(F)c1ccc(CN2CCN(c3cc(-c4ccc(C(F)(F)F)cc4)on3)CC2)cc1	9.5

The reported numbers originate from ChEMBL document CHEMBL5096181.
